Ref: ChEMBL document CHEMBL1961873

target: Serine/threonine-protein kinase B-raf (Homo sapiens) (UniProt P15056); settings: at 1 µM;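 further: reported value is the mean percent inhibition of BRAF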
Sequence (P15056 whole entry): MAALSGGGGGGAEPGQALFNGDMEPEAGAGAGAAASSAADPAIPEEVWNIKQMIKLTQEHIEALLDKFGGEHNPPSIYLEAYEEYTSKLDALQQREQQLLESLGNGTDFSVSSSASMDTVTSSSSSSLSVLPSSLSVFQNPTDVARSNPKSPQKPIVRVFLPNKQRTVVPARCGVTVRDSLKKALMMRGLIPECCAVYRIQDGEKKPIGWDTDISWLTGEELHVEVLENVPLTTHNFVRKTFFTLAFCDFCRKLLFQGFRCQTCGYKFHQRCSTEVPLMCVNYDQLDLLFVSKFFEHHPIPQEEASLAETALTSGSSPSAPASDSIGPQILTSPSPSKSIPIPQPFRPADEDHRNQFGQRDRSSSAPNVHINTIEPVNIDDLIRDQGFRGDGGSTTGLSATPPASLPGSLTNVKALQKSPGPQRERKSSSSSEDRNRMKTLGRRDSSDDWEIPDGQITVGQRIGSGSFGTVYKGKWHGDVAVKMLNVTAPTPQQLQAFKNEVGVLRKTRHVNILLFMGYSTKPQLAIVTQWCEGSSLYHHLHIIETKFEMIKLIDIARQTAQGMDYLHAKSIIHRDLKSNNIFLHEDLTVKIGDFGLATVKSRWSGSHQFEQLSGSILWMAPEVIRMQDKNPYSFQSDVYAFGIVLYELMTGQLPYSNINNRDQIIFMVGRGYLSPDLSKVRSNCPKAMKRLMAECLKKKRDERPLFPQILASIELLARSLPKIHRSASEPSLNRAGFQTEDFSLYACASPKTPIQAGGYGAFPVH
Listing of entries alongside the reported inhibition.
The reply should be a number in %, with the unit left off.

Examples from the recorded data:
compound	target_or_test_system	inhibition, %
CC1=C(C(=O)Nc2ccc3[nH]ncc3c2)C(c2ccc3ccccc3c2)CC(=O)N1 (stereo not given)	Serine/threonine-protein kinase B-raf (Homo sapiens) (UniProt P15056)	43.5
CCn1c(-c2nonc2N)nc2c(C#CC(C)(C)O)nc(CN3CCCC3)cc21	Serine/threonine-protein kinase B-raf (Homo sapiens) (UniProt P15056)	-1.6
CN1CCC(C(=O)Nc2n[nH]c3nnc(-c4ccccc4)cc23)CC1	Serine/threonine-protein kinase B-raf (Homo sapiens) (UniProt P15056)	7.83
CCn1c(-c2nonc2N)nc2cnc(Oc3cccc(NC(=O)c4ccc(OCCN5CCOCC5)cc4)c3)cc21	Serine/threonine-protein kinase B-raf (Homo sapiens) (UniProt P15056)	6.86

Next item in the queue.
Short answer for Nc1ncnc2occ(-c3ccc(NC(=O)Nc4cc(C(F)(F)F)cc(C(F)(F)F)c4)cc3)c12 : inhibition was 7.33

----------
Listing of entries alongside the reported inhibition.
target: Serine/threonine-protein kinase Chk1 (Homo sapiens) (UniProt O14757); conditions: at 0.1 µM;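 further: reported figure is the mean percent inhibition of CHEK1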
Sequence (O14757 whole entry): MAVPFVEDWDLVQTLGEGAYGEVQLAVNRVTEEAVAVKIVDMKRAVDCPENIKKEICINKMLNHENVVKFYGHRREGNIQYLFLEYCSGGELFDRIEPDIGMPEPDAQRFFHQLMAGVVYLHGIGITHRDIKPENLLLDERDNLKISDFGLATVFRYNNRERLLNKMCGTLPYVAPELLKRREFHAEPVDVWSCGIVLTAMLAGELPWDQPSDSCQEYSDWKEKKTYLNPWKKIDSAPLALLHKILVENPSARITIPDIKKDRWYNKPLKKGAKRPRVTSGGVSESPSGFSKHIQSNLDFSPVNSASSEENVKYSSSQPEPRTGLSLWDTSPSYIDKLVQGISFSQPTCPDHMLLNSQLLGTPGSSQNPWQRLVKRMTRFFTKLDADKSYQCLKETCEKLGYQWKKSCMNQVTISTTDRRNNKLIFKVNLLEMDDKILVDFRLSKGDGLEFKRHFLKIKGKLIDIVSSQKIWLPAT
The reply should be a number in %, with the unit left off.

cpd_smiles	target_or_test_system	inhibition, %
COc1cccc(-n2ncc3c(N/N=C/c4cccc(F)c4)ncnc32)c1	Serine/threonine-protein kinase Chk1 (Homo sapiens) (UniProt O14757)	1.95

Short answer for COc1cc(C=NNc2ncnc3c2cnn3-c2ccccc2)ccc1O : inhibition was -2.23

Short answer for Cc1ccc(NC(=O)c2ccnc(N3CCCC3)c2)cc1-c1ccc(C(=O)NCC2CC2)cc1 : inhibition was 3.53

Short answer for COC(=O)Nc1nc2cc(Oc3ccc(NC(=O)Nc4cccc(C(=O)O)c4)cc3)ccc2[nH]1 : inhibition was -3.62

----------
target: Calcium/calmodulin-dependent protein kinase type II subunit alpha (Homo sapiens) (UniProt Q9UQM7); conditions: at 0.1 µM;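 further: reported values are averages (mean inhibition of CAMK2A)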
Sequence (Q9UQM7 whole entry): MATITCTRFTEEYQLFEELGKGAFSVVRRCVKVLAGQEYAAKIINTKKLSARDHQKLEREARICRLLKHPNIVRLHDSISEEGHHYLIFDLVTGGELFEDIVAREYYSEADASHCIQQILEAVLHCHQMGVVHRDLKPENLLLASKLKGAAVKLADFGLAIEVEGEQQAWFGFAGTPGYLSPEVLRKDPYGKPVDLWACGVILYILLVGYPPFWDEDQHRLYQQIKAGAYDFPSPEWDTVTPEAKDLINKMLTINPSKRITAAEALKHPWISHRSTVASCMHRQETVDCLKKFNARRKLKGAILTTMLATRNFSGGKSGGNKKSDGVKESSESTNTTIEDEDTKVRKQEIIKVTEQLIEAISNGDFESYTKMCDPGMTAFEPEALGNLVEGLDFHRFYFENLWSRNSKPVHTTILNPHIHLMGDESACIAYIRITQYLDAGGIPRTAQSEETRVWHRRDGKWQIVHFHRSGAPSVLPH
Listing of entries alongside the reported inhibition.
The reply should be a number in %, with the unit left off.

Examples from the recorded data:
compound	parameter_measured	experimental_result
COc1cc2ncn(-c3cc(OCc4ccccc4C(F)(F)F)c(C(N)=O)s3)c2cc1OC	inhibition	2.39
O=C1Nc2ccc(C(=O)c3ccco3)cc2C1=Cc1cc(Cl)c(O)c(Cl)c1	inhibition	3.4
Cc1cccc(-c2n[nH]cc2-c2ccc3ncccc3n2)n1	inhibition	-1.03

Next item in the queue.
Short answer for O=C1NC(=O)C(N2CCc3ccccc32)=C1c1ccc(Cl)cc1 : inhibition was 4.4

----------
Listing of entries alongside the reported inhibition.
molecular target: Testis-specific serine/threonine-protein kinase 1 (Homo sapiens) (UniProt Q9BXA7); details: at 1 µM;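 further: reported value is the mean inhibition, from the GSK PKIS kinase screening panel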
Sequence (Q9BXA7 whole entry): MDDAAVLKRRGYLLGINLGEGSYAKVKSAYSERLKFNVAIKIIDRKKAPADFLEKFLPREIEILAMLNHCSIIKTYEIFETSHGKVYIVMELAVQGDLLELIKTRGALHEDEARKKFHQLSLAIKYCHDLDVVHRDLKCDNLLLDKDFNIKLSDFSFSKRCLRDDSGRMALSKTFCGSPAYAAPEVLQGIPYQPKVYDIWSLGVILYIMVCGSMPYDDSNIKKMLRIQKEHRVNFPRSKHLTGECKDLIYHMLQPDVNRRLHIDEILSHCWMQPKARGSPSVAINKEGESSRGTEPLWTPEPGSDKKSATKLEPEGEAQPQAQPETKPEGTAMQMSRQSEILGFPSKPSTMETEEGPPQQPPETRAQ
The reply should be a number in %, with the unit left off.

Examples from the recorded data:
compound	target_or_test_system	inhibition [%]
CC(C)=Cc1cccc2c1/C(=N/Nc1ccc(S(N)(=O)=O)cc1)C(=O)N2	Testis-specific serine/threonine-protein kinase 1 (Homo sapiens) (UniProt Q9BXA7)	2.47
NC(=O)c1cccc(Nc2nccc(Nc3cccc4[nH]ncc34)n2)c1	Testis-specific serine/threonine-protein kinase 1 (Homo sapiens) (UniProt Q9BXA7)	15.6
Nc1nc(-c2ccc3c(c2)C(=Cc2cc(Br)c(O)c(Br)c2)C(=O)N3)cs1	Testis-specific serine/threonine-protein kinase 1 (Homo sapiens) (UniProt Q9BXA7)	-0.1
COc1ccccc1Nc1ncc(-c2ccccc2)o1	Testis-specific serine/threonine-protein kinase 1 (Homo sapiens) (UniProt Q9BXA7)	4.46
O=C1NC(=O)C(c2ccccc2Cl)=C1Nc1cccc(O)c1	Testis-specific serine/threonine-protein kinase 1 (Homo sapiens) (UniProt Q9BXA7)	1.53
CC1=C(C(=O)Nc2ccc3[nH]ncc3c2)C(c2ccc3ccccc3c2)CC(=O)N1 (stereo unspecified)	Testis-specific serine/threonine-protein kinase 1 (Homo sapiens) (UniProt Q9BXA7)	1.04
CCn1c(-c2nonc2N)nc2ccncc21	Testis-specific serine/threonine-protein kinase 1 (Homo sapiens) (UniProt Q9BXA7)	1.75
NS(=O)(=O)c1ccc(N/N=C2\C(=O)Nc3ccc(C(=O)NCCc4c[nH]cn4)cc32)cc1	Testis-specific serine/threonine-protein kinase 1 (Homo sapiens) (UniProt Q9BXA7)	11.2
COc1ccc(-c2ccncc2)cc1C(N)=O	Testis-specific serine/threonine-protein kinase 1 (Homo sapiens) (UniProt Q9BXA7)	3.57
O=C1Nc2ccc(C(=O)c3ccco3)cc2C1=Cc1cc(Cl)c(O)c(Cl)c1	Testis-specific serine/threonine-protein kinase 1 (Homo sapiens) (UniProt Q9BXA7)	3.77

Next item in the queue.
Fc1cccc(COc2ccc(Nc3ncnc4sc(-c5cccs5)cc34)cc2Cl)c1 on Testis-specific serine/threonine-protein kinase 1 (Homo sapiens) (UniProt Q9BXA7) gives inhibition = 1.28
